Would you mind labelling by boiling point? At or over 200 °C is true, under is false.

Check the entry CC=C1CCCCC1 : does boiling point equal or exceed 200 °C?
false

Repeat for the following compound: CC(C)=CCO
false

Repeat for the following compound: C[S@](=O)c1ccccc1
true

Repeat for the following compound: C=C=C
false

Repeat for the following compound: CSCc1ccccc1
true

----------
endpoint label: log10 Koc (L/kg)
Could you respond with only the numeric value?

The examples below pair each entry with its known result.
INSERT INTO results (compound, endpoint_label, obs_value) VALUES
  ('Clc1cc(Cl)c(Cl)cc1Cl', 'log10 Koc (L/kg)', 4.1),
  ('NC(=O)c1c(Cl)cccc1Cl', 'log10 Koc (L/kg)', 0.53),
  ('Clc1ccccc1', 'log10 Koc (L/kg)', 2.15);

Item c1ccc2c(c1)cc1ccc3cc4ccccc4c4ccc2c1c34 has what recorded log10 Koc (L/kg)?
5.71

Repeat for the following compound: CN(C)c1ccc(N=NS(=O)(=O)O)cc1
1.18

Repeat for the following compound: CCOP(=S)(OCC)Oc1nc(Cl)n(C(C)C)n1
2.01

Repeat for the following compound: CCOC(=O)C(C)Oc1ccc(Oc2cnc3cc(Cl)ccc3n2)cc1 (stereo unspecified)
2.71

----------
Recorded melting point, one value per entry.

The examples below pair each entry with its known result.
INSERT INTO assay_data (compound, obs_value) VALUES
  ('O=C=Nc1cccc(Cl)c1', '-4 °C'),
  ('CCc1cc2c(cc1C(C)=O)C(C)(C)CCC2(C)C', '46.5 °C'),
  ('Nc1ccccc1C=O', '39 °C'),
  ('Cc1cc(Cl)ccc1Cl', '5 °C');

Please look at the following compound next.
Item CCc1ccc(C(=O)NN(C(=O)c2cc(C)cc(C)c2)C(C)(C)C)cc1 has what recorded melting point?
191 °C

----------
Recorded melting point, one value per entry.
Use °C as the unit, but write only the number.

INSERT INTO assay_data (compound, obs_value) VALUES
  ('NCCCCCCNCCCCCCN', 33);

Please look at the following compound next.
Item ClC1CC2CCC1C2 (stereo not given) has what recorded melting point?
-5

----------
In this scheme, each record receives a class according to its melting point; the ranges are low end: < 70 °C; middle: ≥ 70 °C and < 200 °C; high end: ≥ 200 °C

INSERT INTO results (query_smiles, cat) VALUES
  ('Oc1ccc2c(c1)[nH]c1ccccc12', 'high end'),
  ('OC1c2ccccc2CCc2ccccc21', 'middle'),
  ('C1CC[C@@H]2NCCC[C@@H]2C1', 'low end'),
  ('CC(C)(C)[C@H](O)/C(=C\c1ccc(Cl)cc1)n1cncn1', 'middle'),
  ('O=[N+]([O-])c1ccc(C=NO)cc1', 'middle');

Please find the next compound below.
For this compound, which bin applies? CNc1ccc(N)c2c1C(=O)c1ccccc1C2=O
middle

----------
endpoint label: melting point (°C)
Use °C as the unit, but write only the number.

The examples below pair each entry with its known result.
INSERT INTO measurements (molecule, endpoint_label, obs_value) VALUES
  ('CN(C)c1ccc(Cc2ccc(N(C)C)cc2)cc1', 'melting point', 91.5),
  ('OCCCCCCO', 'melting point', 45),
  ('CCC(=O)C(=O)CC', 'melting point', -10),
  ('FC(F)(F)S(F)(F)(F)(F)F', 'melting point', -87),
  ('OCc1cc(Cl)cc(Cl)c1', 'melting point', 80.5),
  ('N#Cc1ccccc1C#N', 'melting point', 140),
  ('C1=CC=CCC=C1', 'melting point', -79.5),
  ('COc1ccc2cc3[n+](cc2c1OC)CCc1cc2c(cc1-3)OCO2', 'melting point', 145),
  ('CCOc1nc(F)cc2nc(S(=O)(=O)Nc3c(Cl)cccc3C(=O)OC)nn12', 'melting point', 217),
  ('COP(=O)(NC(C)=O)SC (stereo unspecified)', 'melting point', 88);

Item C=CCC(C(=O)O)C(=O)O has what recorded melting point?
105

Repeat for the following molecule: O=Cc1ccccc1F
-44.5

Repeat for the following molecule: NNS(=O)(=O)c1ccccc1
102
